Could you please report measured IC50 for the items listed next?
Target: HePTP (Homo sapiens)
Test: HePTP counterscreen
Format: biochemical
Conditions: read-out: IC50 HePTP (DiFMUP)
Answers are plain numbers, in µM.

Some entries whose results are on file:
# compound, readout_units, experimental_value
measured = [
    ("O=S(=O)(O)c1cccc([P+]([Au-][Cl])(c2ccccc2)c2ccccc2)c1 [Compound 12]", "µM", 40),
    ("[Cl][Au][PH](c1ccccc1)(c1ccccc1)c1ccccn1 [Compound 17, Diphenyl-2-pyridylphosphine-Au(I)-Cl]", "µM", 35),
]

Shifting focus to the compound that follows.
Return IC50 for the following compound: O=S(=O)(O)c1ccc([P+]([Au-][Cl])(c2ccccc2)c2ccc(S(=O)(=O)O)cc2)cc1 [Compound 18]
16

---

Target: LYP (Homo sapiens, UniProt Q9Y2R2)
Sequence (Q9Y2R2 2-309): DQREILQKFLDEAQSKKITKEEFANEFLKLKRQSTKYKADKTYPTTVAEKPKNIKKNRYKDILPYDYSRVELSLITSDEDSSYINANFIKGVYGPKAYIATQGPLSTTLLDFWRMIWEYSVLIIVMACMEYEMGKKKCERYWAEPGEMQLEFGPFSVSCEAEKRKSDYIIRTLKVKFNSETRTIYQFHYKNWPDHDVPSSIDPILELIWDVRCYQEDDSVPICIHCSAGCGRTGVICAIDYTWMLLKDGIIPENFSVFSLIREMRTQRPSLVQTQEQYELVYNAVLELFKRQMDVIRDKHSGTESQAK
Experiment: LYP inhibition assay with fluorogenic substrates
Format: biochemical
Details: read-out: IC50 LYP (DiFMUP); substrate DiFMUP 1.5 µM, pH 6.5
quantity_measured: pIC50
Answers are plain numbers, as −log10 of the molar value.

Some entries whose results are on file:
# entry_smiles, pIC50
rows = [
    ("[Cl][Au][PH](C1CCCCC1)(C1CCCCC1)C1CCCCC1", 4.60),
    ("O=S(=O)(O)c1cccc([P+]([Au-][Cl])(c2ccccc2)c2ccccc2)c1", 5.70),
    ("CP(C)c1ccccc1.[Cl][Au]", 5.46),
    ("O=S(=O)(O)c1ccc([P+]([Au-][Cl])(c2ccccc2)c2ccc(S(=O)(=O)O)cc2)cc1", 5.70),
]

Need pIC50 for each of these compounds.
1. N#CCC[P+](CCC#N)([Au-][Cl])c1ccccc1
2. CCP(CC)CC.[Au+].[Cl-]

[5.46, 4.48]

---

Target: HePTP (Homo sapiens, UniProt P35236)
Sequence (P35236 65-360): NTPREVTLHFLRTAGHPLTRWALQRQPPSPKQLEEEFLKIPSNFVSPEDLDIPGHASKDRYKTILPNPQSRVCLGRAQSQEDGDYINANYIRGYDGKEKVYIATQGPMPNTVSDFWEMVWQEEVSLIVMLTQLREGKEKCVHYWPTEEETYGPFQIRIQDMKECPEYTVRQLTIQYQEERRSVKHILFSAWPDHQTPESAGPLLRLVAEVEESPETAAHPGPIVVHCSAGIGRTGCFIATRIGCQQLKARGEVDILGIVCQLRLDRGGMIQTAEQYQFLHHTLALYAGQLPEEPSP
Test: HePTP counterscreen
Type: biochemical
Conditions: read-out: IC50 HePTP (DiFMUP); substrate DiFMUP
Could you please report measured pIC50 for the items listed next?
One number for each entry, as −log10 of the molar value.

Need pIC50 for each of these compounds.
1. CCP(CC)CC.[Au+].[Cl-] [Compound 39]
2. [Cl][Au][PH](C1CCCCC1)(C1CCCCC1)C1CCCCC1 [Compound 25, Tricyclohexylphosphine-Au(I)-Cl]

1: 3.92; 2: 4.70

---

Target: PTP-PEST (Homo sapiens)
Sequence (Q05209 2-323): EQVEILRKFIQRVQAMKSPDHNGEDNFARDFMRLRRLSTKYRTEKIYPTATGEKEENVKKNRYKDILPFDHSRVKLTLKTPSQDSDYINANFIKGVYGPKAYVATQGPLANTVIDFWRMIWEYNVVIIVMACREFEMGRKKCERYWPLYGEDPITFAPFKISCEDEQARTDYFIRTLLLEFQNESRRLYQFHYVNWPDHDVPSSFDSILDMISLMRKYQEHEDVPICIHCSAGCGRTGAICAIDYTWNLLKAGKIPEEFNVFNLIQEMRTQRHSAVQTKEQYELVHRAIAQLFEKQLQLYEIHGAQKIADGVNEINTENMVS
Assay: PTP-PEST inhibition assay with fluorogenic substrates
Type: biochemical
Details: read-out: IC50 PEST (peptide 1); substrate peptide 1 10 µM, pH 6.5
Could you please report measured pIC50 for the items listed next?
One number for each entry, as −log10 of the molar value.

Some entries whose results are on file:
# entry_smiles, quantity_measured, experimental_value
rows = [
    ("CP(C)c1ccccc1.[Cl][Au]", "pIC50", 4.52),
    ("CCP(CC)CC.[Au+].[Cl-]", "pIC50", 4.03),
]

Return pIC50 for the following molecule: N#CCC[P+](CCC#N)([Au-][Cl])c1ccccc1
4.48
